Source: paper PMC10397247

Molecular target: T1, P9A
T1 chain: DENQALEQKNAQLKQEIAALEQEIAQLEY
Assay: two-hybrid library CCNG1;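 note: natural log of median RNA to DNA barcode read ratio; higher means stronger binding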
Could you please report measured interaction score for the items listed next?
Answers are plain numbers.

Consider the worked cases shown below.
binder="DEIQALEEKNAQLKQEIAALEEKNQALKY [P7A]" assay_value=-0.697
binder="DENQALEQEIAQLEQEIAALEQKNAQLKY [P11A]" assay_value=0.145
binder="DKIAQLKEKNAALKEKNQQLKEKIQALKY [P2A]" assay_value=-0.481
binder="DKNAQLKEKIAALKEKIQQLKEENQALEY [P12A]" assay_value=-0.254
binder="DKNAALKEEIQALEEENQALEEKIAQLKY [P6A]" assay_value=-0.171
binder="DENAALEEKIAQLKQKNAALKEEIQALEY [P5A]" assay_value=-1.38
binder="DKIAQLKQKIQALKQENQQLEEENAALEY [P4A]" assay_value=-1.08
binder="DENQALEQKNAQLKQEIAALEQEIAQLEY [P9A]" assay_value=-1.28

Proceeding to the next binder to report its interaction score.
Request: Note down interaction score recorded for DENAQLEQENAELEQKIAELKWEIAQLEQ [4H1193-bA]
Response: 0.624
